The reported measurements were obtained from patent US9353150B2.

Provide the recorded pIC50 for the entries that follow.
# Tested on: U-937 (hystiocytic lymphoma)
# assay_text: 72-hour IC50 determination for non-adherent cells using MTS
# Format: cell-based, human
# condition_notes: 72-hour exposure; MTS; error is standard deviation of the mean, n ≧ 3; read-out: U-937, 72-hour IC50 (Table E1-1)
pIC50: −log10 of the molar value.

Use the examples below as a reference point.
>  <molecule>
CN1C(=O)[C@@]23C[C@]4([C@]56C[C@@]78SSS[C@@](CO)(C(=O)N7[C@H]5Nc5ccccc56)N(C)C8=O)c5ccccc5N[C@@H]4N2C(=O)[C@]1(CO)SSS3 [Compound 5, (+)-chaetocin C]

>  <result>
9.12

$$$$
>  <molecule>
CN1C(=O)C23CC4(c5c[nH]c6ccccc56)c5ccccc5N(S(=O)(=O)c5ccccc5)C4N2C(=O)C1(C)SC(=S)S3 (stereo not shown) [Compound 66, C3-(Indo-3′-v)dithiepanethiones]

>  <result>
< 6.00

$$$$
>  <molecule>
COCCOCS[C@H]1C(=O)N2[C@H]3N(S(=O)(=O)c4ccccc4)c4ccccc4[C@@]3(c3cn(C(=O)OC(C)(C)C)c4ccccc34)C[C@]2(SCOCCOC)C(=O)N1C [Compound 42, C3-(N-Boc-indol-3′-yl)bis(S-MEM)ether]

>  <result>
< 5.00

$$$$

// next entry
GET /values?readout=pIC50&item= CN1C(=O)[C@]2(O)C[C@]3(c4c[nH]c5ccccc45)c4ccccc4N(S(=O)(=O)c4ccccc4)[C@@H]3N2C(=O)[C@H]1O [Compound 56, C3-(Indol-3′-yl) hexacyclic Diol] < 5.00
